Test: Drug uptake in tumor of mouse xenografted with human H838 cells at 10 mg/kg, iv single dose measured after 168 hrs by LC-MS/MS analysis
Format: ADME, organism-based, Neoplasm, NCI-H838
Details: read-out: Drug uptake
READOUT: concentration at 168 h (ng/mL)
Kindly provide the numeric value in ng/mL only, without the unit symbol.

Input line: What value of concentration at 168 h has been reported for the following molecule? Cc1ncsc1-c1ccc([C@H](CN2CCOCC2)NC(=O)[C@@H]2C[C@@H](O)CN2C(=O)[C@@H](n2cc([C@H]3CC[C@H](CN4CCC(c5ccc6c(c5)-n5c(nc(=O)c7c(Cl)cccc75)C65CCCCC5)CC4)CC3)nn2)C(C)(C)C)cc1
Output line: 169

====

Assay: Cmax in mouse at 1 mg/kg, iv
Format: ADME, organism-based
Settings: in vivo
READOUT: Cmax (ng/mL)
# output: bare number, implied unit ng/mL

Input line: # input compound: Cc1ncsc1-c1ccc([C@H](CN2CCOCC2)NC(=O)[C@@H]2C[C@@H](O)CN2C(=O)[C@@H](n2cc([C@H]3CC[C@H](CN4CCC(c5ccc6c(c5)-n5c(nc(=O)c7c(Cl)cccc75)C65CCCCC5)CC4)CC3)nn2)C(C)(C)C)cc1 ; wanted: its Cmax
Output line: 2230

====

Biological target: von Hippel-Lindau disease tumor suppressor/SWI/SNF-related matrix-associated actin-dependent regulator of chromatin subfamily A member 2 (Homo sapiens, UniProt P51531+P40337)
Sequence (P51531 whole entry): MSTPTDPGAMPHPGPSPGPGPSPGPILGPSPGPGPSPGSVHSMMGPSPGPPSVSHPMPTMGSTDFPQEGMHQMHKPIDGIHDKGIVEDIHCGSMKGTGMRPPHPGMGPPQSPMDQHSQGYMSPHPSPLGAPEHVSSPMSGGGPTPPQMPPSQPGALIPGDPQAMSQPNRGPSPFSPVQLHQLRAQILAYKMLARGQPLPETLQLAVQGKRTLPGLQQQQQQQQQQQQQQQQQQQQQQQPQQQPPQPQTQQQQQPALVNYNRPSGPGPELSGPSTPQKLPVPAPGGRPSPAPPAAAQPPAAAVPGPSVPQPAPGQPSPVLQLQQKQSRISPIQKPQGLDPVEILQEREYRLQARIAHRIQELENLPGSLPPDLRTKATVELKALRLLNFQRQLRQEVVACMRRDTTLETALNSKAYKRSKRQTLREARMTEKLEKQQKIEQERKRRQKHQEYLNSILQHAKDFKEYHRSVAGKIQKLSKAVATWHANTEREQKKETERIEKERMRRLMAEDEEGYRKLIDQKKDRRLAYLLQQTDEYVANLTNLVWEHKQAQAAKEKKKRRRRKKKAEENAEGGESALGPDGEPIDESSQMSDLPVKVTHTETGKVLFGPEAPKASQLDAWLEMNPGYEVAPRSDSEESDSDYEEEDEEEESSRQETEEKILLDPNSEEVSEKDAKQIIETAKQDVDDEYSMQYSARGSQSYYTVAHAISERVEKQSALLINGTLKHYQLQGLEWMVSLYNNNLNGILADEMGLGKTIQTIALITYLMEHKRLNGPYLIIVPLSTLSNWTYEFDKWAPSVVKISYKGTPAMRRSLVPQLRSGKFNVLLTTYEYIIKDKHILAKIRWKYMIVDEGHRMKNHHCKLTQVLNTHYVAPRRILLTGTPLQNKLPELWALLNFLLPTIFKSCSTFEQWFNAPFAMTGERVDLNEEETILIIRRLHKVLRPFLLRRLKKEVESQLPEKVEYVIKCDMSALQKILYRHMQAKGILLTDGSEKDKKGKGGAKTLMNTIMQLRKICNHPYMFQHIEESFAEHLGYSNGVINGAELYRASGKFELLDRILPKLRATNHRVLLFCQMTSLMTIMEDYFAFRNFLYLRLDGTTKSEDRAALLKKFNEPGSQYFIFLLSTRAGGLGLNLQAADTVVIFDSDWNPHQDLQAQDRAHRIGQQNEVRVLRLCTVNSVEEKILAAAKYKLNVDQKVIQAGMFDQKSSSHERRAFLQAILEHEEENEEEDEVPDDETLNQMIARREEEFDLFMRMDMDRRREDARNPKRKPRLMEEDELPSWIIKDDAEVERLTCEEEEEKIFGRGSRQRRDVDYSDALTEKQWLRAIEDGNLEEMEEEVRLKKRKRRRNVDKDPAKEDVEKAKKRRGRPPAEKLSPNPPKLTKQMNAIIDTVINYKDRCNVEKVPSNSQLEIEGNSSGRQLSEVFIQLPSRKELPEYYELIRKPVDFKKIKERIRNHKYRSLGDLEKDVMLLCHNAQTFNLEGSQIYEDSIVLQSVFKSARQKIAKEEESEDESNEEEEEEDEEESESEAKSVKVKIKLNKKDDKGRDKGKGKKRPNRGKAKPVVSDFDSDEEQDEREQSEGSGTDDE
Sequence (P40337 whole entry): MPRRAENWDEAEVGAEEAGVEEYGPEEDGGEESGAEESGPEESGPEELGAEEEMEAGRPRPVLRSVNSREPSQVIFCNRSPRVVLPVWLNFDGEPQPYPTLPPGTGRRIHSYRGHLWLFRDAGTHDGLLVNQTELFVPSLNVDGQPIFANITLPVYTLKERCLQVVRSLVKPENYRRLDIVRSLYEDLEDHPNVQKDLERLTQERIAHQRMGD
Assay: PROTAC activity at SMARCA2/VHL1 in human HeLa cells assessed as protein degradation by Nano-Glo HiBiT lytic detection assay
Assay type: cell-based
READOUT: DC50 (nM)
Give the number; nM is assumed, so skip it.

Reference set (3 entries):
[
  {
    "STRUCTURE SMILES STRING": "COCCOCCOCCOCCOC[C@H](NC(=O)[C@@H]1C[C@@H](O)CN1C(=O)[C@@H](n1cc([C@H]2CC[C@H](CN3CCC(c4ccc5c(c4)-n4c(nc(=O)c6c(Cl)cccc64)C54CCCCC4)CC3)CC2)nn1)C(C)(C)C)c1ccc(-c2scnc2C)cc1",
    "DC50 / nM": 3
  },
  {
    "STRUCTURE SMILES STRING": "Cc1ccccc1-c1ccc([C@H](CN2CCOCC2)NC(=O)[C@@H]2C[C@@H](O)CN2C(=O)[C@@H](n2cc([C@H]3CC[C@H](CN4CCC(c5ccc6c(c5)-n5c(nc(=O)c7c(Cl)cccc75)C65CCCCC5)CC4)CC3)nn2)C(C)(C)C)cc1",
    "DC50 / nM": 8
  },
  {
    "STRUCTURE SMILES STRING": "COCCOCCOCCOC[C@H](NC(=O)[C@@H]1C[C@@H](O)CN1C(=O)[C@@H](n1cc([C@H]2CC[C@H](CN3CCC(c4ccc5c(c4)-n4c(nc(=O)c6c(Cl)cccc64)C54CCCCC4)CC3)CC2)nn1)C(C)(C)C)c1ccc(-c2scnc2C)cc1",
    "DC50 / nM": 2
  }
]

// next entry
Input line: Dear colleague, I am looking for the recorded DC50 of the following compound: Cc1ncsc1-c1ccc([C@H](C)NC(=O)[C@@H]2C[C@@H](O)CN2C(=O)[C@@H](n2cc([C@H]3CC[C@H](CN4CCC(c5ccc6c(c5)-n5c(nc(=O)c7c(Cl)cccc75)C65CCCCC5)CC4)CC3)nn2)C(C)(C)C)cc1
Output line: 0.3

====

Assay: Plasma concentration in mouse xenografted with human H838 cells at 10 mg/kg, iv single dose measured after 6 hrs by LC-MS/MS analysis
Type: ADME, organism-based, NCI-H838
READOUT: concentration at 6 h
Value and unit, in that order.

Input line: Look up concentration at 6 h: Cc1ncsc1-c1ccc([C@H](CN2CCOCC2)NC(=O)[C@@H]2C[C@@H](O)CN2C(=O)[C@@H](n2cc([C@H]3CC[C@H](CN4CCC(c5ccc6c(c5)-n5c(nc(=O)c7c(Cl)cccc75)C65CCCCC5)CC4)CC3)nn2)C(C)(C)C)cc1
Output line: 585 ng/mL

====

Molecular target: SWI/SNF-related matrix-associated actin-dependent regulator of chromatin subfamily A member 4 (Homo sapiens)
Sequence (P51532 whole entry): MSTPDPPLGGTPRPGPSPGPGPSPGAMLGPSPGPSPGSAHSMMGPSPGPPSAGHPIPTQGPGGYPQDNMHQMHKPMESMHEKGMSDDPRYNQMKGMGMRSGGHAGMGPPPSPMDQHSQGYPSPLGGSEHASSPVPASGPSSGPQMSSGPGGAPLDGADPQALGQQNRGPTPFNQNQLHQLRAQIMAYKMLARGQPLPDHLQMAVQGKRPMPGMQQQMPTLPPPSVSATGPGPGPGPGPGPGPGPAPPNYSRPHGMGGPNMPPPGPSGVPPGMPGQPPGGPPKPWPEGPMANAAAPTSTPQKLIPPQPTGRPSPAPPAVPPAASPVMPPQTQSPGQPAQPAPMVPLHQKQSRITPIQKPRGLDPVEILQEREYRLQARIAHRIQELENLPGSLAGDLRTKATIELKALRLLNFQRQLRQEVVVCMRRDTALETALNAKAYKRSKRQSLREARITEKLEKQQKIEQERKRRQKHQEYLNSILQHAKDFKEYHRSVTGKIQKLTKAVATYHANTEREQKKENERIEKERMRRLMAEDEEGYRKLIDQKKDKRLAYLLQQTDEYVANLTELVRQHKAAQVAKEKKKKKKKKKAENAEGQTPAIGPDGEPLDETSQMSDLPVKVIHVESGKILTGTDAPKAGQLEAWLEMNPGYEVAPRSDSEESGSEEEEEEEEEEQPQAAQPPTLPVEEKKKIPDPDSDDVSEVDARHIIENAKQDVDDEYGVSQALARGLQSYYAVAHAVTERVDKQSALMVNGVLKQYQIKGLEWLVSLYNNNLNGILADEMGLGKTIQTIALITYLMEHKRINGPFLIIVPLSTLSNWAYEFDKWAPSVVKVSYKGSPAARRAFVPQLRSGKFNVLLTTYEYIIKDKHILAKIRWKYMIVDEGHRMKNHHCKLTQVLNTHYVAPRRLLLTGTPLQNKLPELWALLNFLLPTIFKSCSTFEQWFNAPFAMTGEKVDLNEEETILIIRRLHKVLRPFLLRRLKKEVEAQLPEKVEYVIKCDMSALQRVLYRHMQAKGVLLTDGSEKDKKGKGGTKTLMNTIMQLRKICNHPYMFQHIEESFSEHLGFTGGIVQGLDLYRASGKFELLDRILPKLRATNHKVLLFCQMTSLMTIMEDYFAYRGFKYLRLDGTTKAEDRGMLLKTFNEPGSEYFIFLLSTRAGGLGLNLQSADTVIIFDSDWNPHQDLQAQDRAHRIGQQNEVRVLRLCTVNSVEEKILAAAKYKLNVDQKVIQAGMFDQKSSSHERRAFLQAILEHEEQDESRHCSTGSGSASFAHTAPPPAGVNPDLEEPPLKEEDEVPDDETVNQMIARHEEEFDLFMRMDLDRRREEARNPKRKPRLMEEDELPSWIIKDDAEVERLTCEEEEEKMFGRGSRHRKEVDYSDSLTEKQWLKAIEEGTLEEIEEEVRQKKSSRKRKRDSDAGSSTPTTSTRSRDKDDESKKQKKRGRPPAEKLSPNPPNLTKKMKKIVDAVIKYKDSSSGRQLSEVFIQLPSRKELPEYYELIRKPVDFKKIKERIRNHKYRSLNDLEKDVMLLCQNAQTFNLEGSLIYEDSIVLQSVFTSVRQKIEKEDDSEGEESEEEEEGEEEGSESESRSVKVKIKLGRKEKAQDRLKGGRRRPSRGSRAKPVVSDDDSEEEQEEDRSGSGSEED
Measured IC50 accompanies every entry in the list below.
Value expressed in nM; do not type the unit.

Input line: Looking for the measured IC50 of O=c1nc2n(c3cccc(Cl)c13)-c1ccc(C3CCNCC3)cc1C21CCCCC1 , can you help?
Output line: 58

Input line: Bench note: what IC50 did O=c1nc2n(c3cccc(Cl)c13)-c1cc(C3CCNCC3)ccc1C21CCCCC1 show?
Output line: 83

====

Molecular target: von Hippel-Lindau disease tumor suppressor (Homo sapiens, UniProt P40337)
Sequence (P40337 whole entry): as the sequence (P40337 whole entry) above
READOUT: pIC50
Convention used: pIC50 is expressed as -log10 of the molar concentration.

[
  {
    "STRUCTURE SMILES STRING": "Cc1cn([C@H](C(=O)N2C[C@H](O)C[C@H]2C(=O)N[C@@H](C)c2ccc(-c3scnc3C)cc2)C(C)(C)C)nn1",
    "RESULT": 7.79
  }
]

Could you now consider this next compound?
Input line: Hello, I am looking for reported pIC50 with von Hippel-Lindau disease tumor suppressor (Homo sapiens, UniProt P40337) for Cc1ncsc1-c1ccc([C@H](C)NC(=O)[C@@H]2C[C@@H](O)CN2C(=O)[C@@H](n2cc(C3CC3)nn2)C(C)(C)C)cc1 . Could you help?
Output line: 7.72

====

Experiment: Drug uptake in tumor of mouse xenografted with human H838 cells at 10 mg/kg, iv single dose measured after 6 hrs by LC-MS/MS analysis
Assay type: ADME, organism-based, Neoplasm, NCI-H838
Details: read-out: Drug uptake
READOUT: concentration at 6 h (ng/mL)
Please state the figure in ng/mL; there is no need to write the unit.

Input line: Name the reported concentration at 6 h value associated with the molecule Cc1ncsc1-c1ccc([C@H](CN2CCOCC2)NC(=O)[C@@H]2C[C@@H](O)CN2C(=O)[C@@H](n2cc([C@H]3CC[C@H](CN4CCC(c5ccc6c(c5)-n5c(nc(=O)c7c(Cl)cccc75)C65CCCCC5)CC4)CC3)nn2)C(C)(C)C)cc1
Output line: 608
